Attribution: PubChem BioAssay

Test system: Human papillomavirus type 1a E7 protein (residues 1-88)
Experiment: HPV1a E7 small-molecule binders, primary screen, biochemical, small-molecule microarray, residues 1-88, 635 nm (AID 1129)
Conditions: small-molecule microarray binding, fluorescence 635 nm; higher = more signal
Label YES when composite z-score is at or above 0.7; anything below gets NO.

Task: Determine whether measured composite z-score meets or exceeds 0.7 for COc1ccc(CCNC(=O)[C@@]2(C)c3ccccc3C(=O)N(C(C)C)[C@H]2c2ccc(CO)cc2)cc1
Result: YES

Task: Determine whether measured composite z-score meets or exceeds 0.7 for COc1cc(NN2C(C(O)c3ccco3)C=CC3C(=O)N(c4ccccc4)C(=O)C32)cc(OC)c1OC (stereo unspecified)
Result: YES

Task: Determine whether measured composite z-score meets or exceeds 0.7 for CC(C)N1C(=O)c2ccccc2[C@](C)(C(=O)NCCN2CCOCC2)[C@@H]1c1ccc(CO)cc1
Result: NO

Task: Determine whether measured composite z-score meets or exceeds 0.7 for O=C1c2ccccc2[C@](Cc2ccccc2I)(C(=O)NCC(F)(F)F)[C@H](c2ccc(CO)cc2)N1Cc1ccccc1Cl
Result: YES

Task: Determine whether measured composite z-score meets or exceeds 0.7 for COc1cc2c(cc1O)C(C1CC1)N(Cc1sc3ccccc3c1Cl)CC2 (stereo unspecified)
Result: YES

Task: Determine whether measured composite z-score meets or exceeds 0.7 for CCOC(=O)C[C@H]1[C@H](OC(=O)c2ccc(C(=O)c3ccccc3)cc2)[C@@H](NC(=O)c2ccccc2)c2cc(OCCCO)ccc2N1C(=O)c1ccc2ccccc2n1
Result: YES

Task: Determine whether measured composite z-score meets or exceeds 0.7 for COC(=O)[C@@]1(Cc2ccccc2)[C@H]2c3cc(C(=O)N(C)C)n(Cc4ccsc4Br)c3C[C@H]2CN1C(=O)c1ccccc1
Result: YES

Task: Determine whether measured composite z-score meets or exceeds 0.7 for COCCOC(=O)N1C(=O)[C@@]2(c3ccccc31)[C@H](c1ccc(O)cc1)N1[C@H](c3ccccc3)[C@H](c3ccccc3)OC(=O)[C@H]1[C@@H]2C(=O)Nc1nc2ccccc2s1
Result: YES

Task: Determine whether measured composite z-score meets or exceeds 0.7 for COC(=O)[C@@]1(Cc2ccccc2)[C@H]2c3cc(C(=O)N4CCCC4)n(Cc4ccc(S(C)(=O)=O)cc4)c3C[C@H]2CN1C(=O)c1ccccc1
Result: YES

Task: Determine whether measured composite z-score meets or exceeds 0.7 for C=C(CCCC)/C(=C/C[C@@H](OC(C)=O)c1ccc(OCCO)cc1)c1cnc2ccccc2c1
Result: YES

Task: Determine whether measured composite z-score meets or exceeds 0.7 for CCC[C@@H]1C[C@@]1(CCC)[C@@H](NS(=O)(=O)c1cccc2cccnc12)c1ccc(Cl)cc1
Result: YES

Task: Determine whether measured composite z-score meets or exceeds 0.7 for O=C1C2C=CC(C(O)CCc3ccccc3)N(Nc3ccccc3F)C2C(=O)N1c1ccccc1 (stereo unspecified)
Result: YES

====

Test: COS7 lysate on small-molecule microarray, probe aHis, 635 nm (AID 1123);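 note: z-score combines 667nm fluorescence intensity with signal-to-noise per printed compound spot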
Details: COS7 cell lysate, fluorescence, higher = more signal
readout: composite z-score
Give bare numbers.

In the examples that follow, each entry is paired with its recorded composite z-score.
molecule	quantitative_result
COC(=O)[C@@]1(Cc2ccc(OC)cc2)[C@H]2c3cc(C(=O)N4CCCC4)n(CCN4CNCC4=O)c3C[C@H]2CN1C(=O)c1ccccc1	1.79
CC(C)[Si]1(C(C)C)O[C@@H](c2ccccc2)c2cc(-c3ccc(-c4ccc(Cl)c(Cl)c4)o3)nc(-c3ccccc3)c21	0.308

Please give composite z-score, item by item, for the list that follows.
1. Cc1ccc(S[C@]2(C(=O)NCCCN(C)C)CC(=O)N(Cc3cc(C(F)(F)F)cc(C(F)(F)F)c3)[C@@H]2c2ccc(CO)cc2)cc1
2. C=CCNC(=O)[C@@H]1[C@H]2C(=O)O[C@H](c3ccccc3)[C@H](c3ccccc3)N2[C@H](c2ccc(O)cc2)[C@@]12C(=O)Nc1ccc(C#CCNC(N)=O)cc12
3. [N-]=[N+]=Nc1ccccc1[C@H]1OC(c2ccc(OCCCO)cc2)=N[C@@]1(CCS(=O)(=O)c1ccccc1)C(=O)NCC(O)CO (some centres undefined)
4. CC(C)[Si](C#Cc1ccc(Oc2ccccc2)cc1)(O[Si](C#Cc1ccc(Oc2ccccc2)cc1)(C(C)C)C(C)C)C(C)C

Result:
1: 0.616; 2: 0.636; 3: 3.02; 4: 0.407

Please give composite z-score, item by item, for the list that follows.
1. NC(=O)N1C(=O)C2C(C1=O)C1C=C(c3ccc(CO)cc3)C2C(c2cccs2)N1Cc1cccc(OC(F)(F)F)c1 (centres undefined)
2. COCCOC(=O)N1C(=O)[C@@]2(c3cc(C#CCC(C(=O)OC)C(=O)OC)ccc31)[C@H](c1ccccc1OCCO)N1[C@H](c3ccccc3)[C@H](c3ccccc3)OC(=O)[C@H]1[C@@H]2C(=O)N1CCN(c2ncccn2)CC1
3. C[N+](C)(C)CCCCCCNC(=O)[C@@H]1C[C@@H]2C(=O)N[C@@H](Cc3ccccc3)C(=O)N2[C@@H]1c1cccc(OCCO)c1

Result:
1. 0.669
2. 1.66
3. 1.59

Please give composite z-score, item by item, for the list that follows.
1. COC(=O)[C@@]1(Cc2ccccc2)[C@H]2c3cc(C(=O)N(C)C)n(Cc4ccsc4Br)c3C[C@H]2CN1C(=O)c1ccccc1
2. C[N+](C)(C)CCCCNC(=O)[C@H]1C[C@H]2C(=O)N3CCC[C@H]3C(=O)N2[C@H]1c1cccc(OCCO)c1
3. O=C1NC(=O)C2C1C=CC(C(O)c1cccs1)N2Nc1ccc(Cl)cc1Cl (centres undefined)
4. O=C(c1ccccc1)N1C(=O)[C@@]2(Cc3ccccc31)N=C(c1ccc(OCCCO)cc1)O[C@H]2c1ccccc1
5. O=C1N(Cc2ccccc2)c2ccccc2[C@@H]2OC(c3ccc(OCCCO)cc3)=N[C@]12CCS(=O)(=O)c1ccccc1

Result:
1: 2.66; 2: 0.647; 3: 1.03; 4: 2.41; 5: 2.52

====

Test: small-molecule binders of probe aNOTCH2, primary screen, biochemical, small-molecule microarray, 635/667 nm fluorescence (AID 1121);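 note: score merges feature fluorescence read at 667 nm with its signal to noise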
Settings: higher = more signal
Label satisfied when composite z-score is at or above -0.1; anything below gets not satisfied.

Example entries and their recorded answers appear below.
compound	discrete_label
C=CC1(C(=O)OC)CC=C(C(=O)OC)CC1 (stereo not drawn)	satisfied
COC(=O)[C@@]1(Cc2ccc(OC)cc2)[C@H]2c3cc(C(=O)N4CCCC4)n(Cc4ccc(C)c(F)c4F)c3C[C@H]2CN1C(=O)c1ccccc1	satisfied
C=CCN1C(=O)[C@@]2(Cc3ccccc31)N=C(c1ccc(OCCCO)cc1)O[C@H]2c1ccccc1	satisfied
C=CCNC(=O)[C@H]1[C@@H]2C(=O)O[C@@H](c3ccccc3)[C@@H](c3ccccc3)N2[C@@H](c2ccccc2OCCO)[C@]12C(=O)Nc1ccc(C#CCCO)cc12	not satisfied
CO[C@H]1O[C@H](CO)[C@@H](OC(=O)Nc2ccccc2)[C@H](OC(=O)Nc2ccccc2)[C@@H]1OC(=O)Nc1ccccc1	satisfied

Task: Determine whether measured composite z-score meets or exceeds -0.1 for O[C@@H](Cc1ccccc1)[C@H]1C2C=CCCC=C2CN1Cc1cccc(Cl)c1 (stereo partly drawn)
Result: satisfied

Task: Determine whether measured composite z-score meets or exceeds -0.1 for C=C(CCCC)/C(=C/C[C@H](OC(=O)c1ccncc1)c1ccccc1OCCO)c1cnc2ccccc2c1
Result: not satisfied

Task: Determine whether measured composite z-score meets or exceeds -0.1 for O=C(NCCN1CCOCC1)[C@@H]1c2ccccc2C(=O)N(C2CCCCC2)[C@H]1c1ccc(CO)cc1
Result: not satisfied

====

Assay: binders of probe aHhip on microarray, primary screen, stem cell growth factor project, biochemical, small-molecule microarray, fluorescence 635/667 (AID 1087);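 note: score merges spot fluorescence at 667nm with spot signal to noise ratio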
Settings: higher = more signal
Label label 1 when composite z-score is at or above -0.1; anything below gets label 0.

compound	discrete_label
OCCCC1=CC(c2cccs2)N(Cc2cc3c(cc2Br)OCO3)CC1 (configuration not stated)	label 0
COc1ccc(C(=O)Nc2ccc(CN3C(=O)[C@]4(O[C@H](CCO)[C@@H]([Si](C)(C)c5ccc(OC)cc5)[C@@H]4C)c4ccccc43)cc2)cc1	label 1
C=CCNC(=O)[C@H]1[C@@H]2C(=O)O[C@@H](c3ccccc3)[C@@H](c3ccccc3)N2[C@@H](c2ccccc2OCCO)[C@]12C(=O)Nc1ccc(C#CCCO)cc12	label 1
[N-]=[N+]=NCc1ccccc1C[C@]1(C(=O)N2CCCCC2)N=C(c2ccc(OCCCO)cc2)O[C@H]1c1ccccc1N=[N+]=[N-]	label 0

Shifting focus to the compound that follows.
Task: Determine whether measured composite z-score meets or exceeds -0.1 for C[N+](C)(C)CCCC[C@@H]1NC(=O)[C@H]2C[C@@H](C(=O)NCCCCCCNC(=O)CS)[C@@H](c3cccc(OCCO)c3)N2C1=O
Result: label 0
